Measured values drawn from the supplement of paper PMC13380429 for this set.

- System: HepG2
- run.description: cell viability relative to DMSO; higher = less toxic
- condition.details: 72 h; 10 nM
assay.endpoint: cell viability (%)

COc1ccc(CCO[C@@H]2CCCC[C@H]2N2CC[C@@H](O)C2)cc1OC : 112
CCOC(=O)Nc1ccc2c(c1)N(C(=O)CN(C)C)c1ccccc1CC2 : 95.4
CCc1nc(C(N)=O)c(Nc2ccc(N3CCC(N4CCN(C)CC4)CC3)c(OC)c2)nc1NC1CCOCC1 : 92.1
Nc1nc(=O)c2sc(=O)n([C@@H]3O[C@H](CO)[C@@H](O)[C@H]3O)c2[nH]1 : 99.5
O=C(O)c1ccc(N2C(=O)/C(=C/c3ccc(-c4ccc([N+](=O)[O-])cc4)o3)C=C2c2ccccc2)cc1 : 108
Cc1ccc2c(c1)=C(c1ccccc1)C(C1=NN(C(=O)CCC(=O)O)C(c3ccc(Br)cc3)C1)C(=O)N=2 (configuration not stated) : 105
NCCCC[C@@H]1NC(=O)[C@@H](Cc2c[nH]c3ccccc23)NC(=O)[C@H](c2ccccc2)NC(=O)[C@@H]2C[C@@H](OC(=O)NCCN)CN2C(=O)[C@H](Cc2ccccc2)NC(=O)[C@H](Cc2ccc(OCc3ccccc3)cc2)NC1=O [pasireotide] : 105
Cc1cc(-c2nc(-c3ccc(OC(F)(F)F)cc3)no2)nn1Cc1ccnc(N2CCN(C3CC3)CC2)c1 : 50.4
CN(C[C@@H]1COCCO1)S(=O)(=O)Nc1ccc2ccc3ncc(-c4cnn(C)c4)cc3c(=O)c2c1 : 96.6
Cc1c(F)cc(C(=O)NC2CC2)cc1-c1ccc(C(=O)NCC(C)(C)C)cn1 : 99.8
C[C@]12C=CC(=O)C=C1CC[C@@H]1[C@@H]2[C@@H](O)C[C@@]2(C)[C@H]1CC[C@]2(O)C(=O)COC(=O)CCC(=O)O [prednisolone-hemisuccinate] : 92.5
Cc1nc(C#Cc2ccnc(Cl)c2)c(C)n1-c1ccc(OC(F)(F)F)cc1 : 88.6
